// provenance: patent US11173162B2

Test system: FGFR3 enzyme
Test: FGFR Enzymatic Assay (FRET peptide phosphorylation), FGFR3
Format: biochemical
Details: IC50 ratio showing FGFR3 selectivity; Table 2A, pre-incubated for 4 hours
reported metric: FGFR1/FGFR3

Examples from the recorded data:
compound	FGFR1/FGFR3
COc1cc(OC)c(F)c(N2Cc3cnc(-c4cn(C)nc4C)cc3N(c3cccc(F)c3)C2=O)c1F [Example 99]	>5
COc1cc(OC)c(F)c(N2Cc3cnc(-c4cn(C)nc4C)cc3N(c3cc(F)cc(F)c3)C2=O)c1F [Example 103]	>3
COc1cc(OC)c(F)c(N2Cc3cnc(-c4cn(C)nc4C)cc3N(Cc3cnn(C)c3)C2=O)c1F [Example 72]	>5
CNC(=O)c1ccc(-c2cc3c(cn2)CN(c2c(F)c(OC)cc(OC)c2F)C(=O)C32CC2)cn1 [Example 18]	>5
COc1cc(OC)c(F)c(N2Cc3cnc(-c4cn(C5CCS(=O)(=O)C5)nc4C)cc3C3(CC3)C2=O)c1F (centres unmarked) [Example 54]	>5
COc1cc(OC)c(F)c(N2Cc3cnc(-c4cn(C)nc4C)cc3N(C3CC3)C2=O)c1F [Example 83]	>5
COc1cc(OC)c(F)c(N2Cc3cnc(-c4cn(C)nc4C)cc3N(c3ccc(C#N)cc3)C2=O)c1F [Example 44]	>10

Now look at this one.
The reported FGFR1/FGFR3 of the compound CCN1C(=O)N(c2c(F)c(OC)cc(OC)c2F)Cc2cnc(-c3cccnc3)cc21 [Example 23] was >5
